- tested.system: CDK3 CCNE1 (human) (UniProt Q00526+P24864)
- measurement.description: radiometric filter-binding kinase assay, Kinase HotSpot
- reported.conditions: compound 0.5 µM; ATP 10 µM

cpd.smiles	tested.system	unit.of.measurement	residual activity
O=C(Nc1ccc(Cl)cc1)c1ccccc1NCc1ccncc1	CDK3 CCNE1 (human) (UniProt Q00526+P24864)	%	87.4
Cc1ccc(NC(=O)c2ccc(CN3CCN(C)CC3)cc2)cc1Nc1nc(-c2cccnc2)cs1	CDK3 CCNE1 (human) (UniProt Q00526+P24864)	%	90.2
CCN1/C(=C/C(C)=O)Sc2ccc(OC)cc21	CDK3 CCNE1 (human) (UniProt Q00526+P24864)	%	91.5
CC(C)(C)c1nc2c3ccc(F)cc3c3c(=O)[nH]ccc3c2[nH]1	CDK3 CCNE1 (human) (UniProt Q00526+P24864)	%	92.1

====

compounds and their reported residual activity
- Test system: ARAF (human), P10398 [Y301D/Y302D]
- Sequence (P10398 whole entry Y301D/Y302D, looked up): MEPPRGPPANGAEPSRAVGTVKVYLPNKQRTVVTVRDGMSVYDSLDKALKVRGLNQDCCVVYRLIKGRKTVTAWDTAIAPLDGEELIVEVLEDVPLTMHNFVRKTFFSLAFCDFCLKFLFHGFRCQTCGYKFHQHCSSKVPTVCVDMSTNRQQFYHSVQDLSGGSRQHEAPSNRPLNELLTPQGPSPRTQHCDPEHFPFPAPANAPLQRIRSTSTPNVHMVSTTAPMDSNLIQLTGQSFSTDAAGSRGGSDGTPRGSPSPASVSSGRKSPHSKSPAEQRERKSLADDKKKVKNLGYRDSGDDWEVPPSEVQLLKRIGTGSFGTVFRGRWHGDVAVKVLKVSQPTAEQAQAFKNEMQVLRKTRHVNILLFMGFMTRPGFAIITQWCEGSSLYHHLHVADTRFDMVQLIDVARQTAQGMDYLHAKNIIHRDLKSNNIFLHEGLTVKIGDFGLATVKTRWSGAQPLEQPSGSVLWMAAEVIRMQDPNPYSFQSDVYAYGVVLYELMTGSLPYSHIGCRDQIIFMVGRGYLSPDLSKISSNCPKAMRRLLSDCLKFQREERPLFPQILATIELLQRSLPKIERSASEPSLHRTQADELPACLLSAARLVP
- measurement.description: radiometric filter-binding kinase assay, Kinase HotSpot
- reported.conditions: compound 0.5 µM; ATP 10 µM
endpoint.label: residual activity (%)

cpd.smiles	unit.of.measurement	observed.result
N#C/C(=C1/Nc2ccccc2S1)c1ccnc(NCCc2cccnc2)n1	%	97.6
O=S(=O)(NCCNC/C=C/c1ccc(Br)cc1)c1cccc2cnccc12	%	95.8
N#CC(C#N)=C(N)/C(C#N)=C/c1ccc(O)cc1	%	90.8
FC(F)(F)c1ccc(/C=C/c2nc(COc3ccc(CCCCn4ccnn4)cc3)co2)cc1	%	102
CC(C)(C)c1nc2c3ccc(F)cc3c3c(=O)[nH]ccc3c2[nH]1	%	122
O=C1Cc2c([nH]c3ccc(Br)cc23)-c2ccccc2N1	%	104
Cn1c2ccccc2c2c3c(c4c5ccccc5n(CCC#N)c4c21)CNC3=O	%	103

====

- tested.system: MAPK10 (human)
- measurement.description: radiometric filter-binding kinase assay, Kinase HotSpot
- reported.conditions: compound 0.5 µM; ATP 10 µM

cpd.smiles	tested.system	residual activity [%]
COc1cc2nccc(Oc3ccc(NC(=S)NC(=O)c4ccccc4C)cc3)c2cc1OC	MAPK10 (human)	98.7
CC(C)(C)c1nc2c3ccc(F)cc3c3c(=O)[nH]ccc3c2[nH]1	MAPK10 (human)	107
Clc1ccc(Nc2nnc(Cc3ccncc3)c3ccccc23)cc1	MAPK10 (human)	116
Cc1ccc(NC(=O)c2ccc(CN3CCN(C)CC3)cc2)cc1Nc1nc(-c2cccnc2)cs1	MAPK10 (human)	94.2
O=C1Nc2cc(Br)ccc2/C1=C1/Nc2ccccc2/C1=N\O	MAPK10 (human)	97.9
Nc1nc(Nc2ccc(S(N)(=O)=O)cc2)nn1C(=S)Nc1c(F)cccc1F	MAPK10 (human)	105
CCN1/C(=C/C(C)=O)Sc2ccc(OC)cc21	MAPK10 (human)	102
Oc1ccc(-c2nc(-c3ccc(F)cc3)c(-c3ccncc3)[nH]2)cc1	MAPK10 (human)	117
O=C1Nc2ccccc2/C1=C\c1c(Cl)[nH]c2ccccc12	MAPK10 (human)	103
O=c1cc(N2CCNCC2)oc2c(-c3ccccc3)cccc12	MAPK10 (human)	85

====

- tested.system: PDGFRA (human)
- measurement.description: radiometric filter-binding kinase assay, Kinase HotSpot
- reported.conditions: compound 0.5 µM; ATP 10 µM
endpoint.label: residual activity (%)

compound	endpoint.label	unit.of.measurement	observed.result
CC(C)n1cnc2c(Nc3cccc(Cl)c3)nc(NCCO)nc21	residual activity	%	96.4
O=C(NC(NC(=S)Nc1ccc(F)c([N+](=O)[O-])c1)C(Cl)(Cl)Cl)C(c1ccccc1)c1ccccc1 (stereo not drawn)	residual activity	%	100
O=C1Nc2ccccc2/C1=C\c1c(Cl)[nH]c2ccccc12	residual activity	%	88.7
Nc1nc(Nc2ccc(S(N)(=O)=O)cc2)nn1C(=O)c1c(F)cccc1F	residual activity	%	82
Nc1n[nH]c2nnc(-c3c(-c4ccccc4)nn4ccccc34)cc12	residual activity	%	99.7
O=c1cc(-c2cccc3c2Sc2ccccc2S3)oc(N2CCOCC2)c1	residual activity	%	101
Oc1ccc(-c2nc(-c3ccc(F)cc3)c(-c3ccncc3)[nH]2)cc1	residual activity	%	98.8
Nc1nc(Nc2ccc(S(N)(=O)=O)cc2)nn1C(=S)Nc1c(F)cccc1F	residual activity	%	56.4
CCN1/C(=C/C(C)=O)Sc2ccc(OC)cc21	residual activity	%	105
COc1cc2ncnc(Nc3ccc(F)c(Cl)c3)c2cc1OCCCN1CCOCC1	residual activity	%	97
O=c1cc(N2CCNCC2)oc2c(-c3ccccc3)cccc12	residual activity	%	97.4
COc1ccc(-c2cnc3c(-c4ccsc4)cnn3c2)cc1	residual activity	%	74.8
O=C1Nc2cc(Br)ccc2/C1=C1/Nc2ccccc2/C1=N\O	residual activity	%	68.4

====

- tested.system: UniProt P54762
- Sequence (P54762 whole entry, looked up): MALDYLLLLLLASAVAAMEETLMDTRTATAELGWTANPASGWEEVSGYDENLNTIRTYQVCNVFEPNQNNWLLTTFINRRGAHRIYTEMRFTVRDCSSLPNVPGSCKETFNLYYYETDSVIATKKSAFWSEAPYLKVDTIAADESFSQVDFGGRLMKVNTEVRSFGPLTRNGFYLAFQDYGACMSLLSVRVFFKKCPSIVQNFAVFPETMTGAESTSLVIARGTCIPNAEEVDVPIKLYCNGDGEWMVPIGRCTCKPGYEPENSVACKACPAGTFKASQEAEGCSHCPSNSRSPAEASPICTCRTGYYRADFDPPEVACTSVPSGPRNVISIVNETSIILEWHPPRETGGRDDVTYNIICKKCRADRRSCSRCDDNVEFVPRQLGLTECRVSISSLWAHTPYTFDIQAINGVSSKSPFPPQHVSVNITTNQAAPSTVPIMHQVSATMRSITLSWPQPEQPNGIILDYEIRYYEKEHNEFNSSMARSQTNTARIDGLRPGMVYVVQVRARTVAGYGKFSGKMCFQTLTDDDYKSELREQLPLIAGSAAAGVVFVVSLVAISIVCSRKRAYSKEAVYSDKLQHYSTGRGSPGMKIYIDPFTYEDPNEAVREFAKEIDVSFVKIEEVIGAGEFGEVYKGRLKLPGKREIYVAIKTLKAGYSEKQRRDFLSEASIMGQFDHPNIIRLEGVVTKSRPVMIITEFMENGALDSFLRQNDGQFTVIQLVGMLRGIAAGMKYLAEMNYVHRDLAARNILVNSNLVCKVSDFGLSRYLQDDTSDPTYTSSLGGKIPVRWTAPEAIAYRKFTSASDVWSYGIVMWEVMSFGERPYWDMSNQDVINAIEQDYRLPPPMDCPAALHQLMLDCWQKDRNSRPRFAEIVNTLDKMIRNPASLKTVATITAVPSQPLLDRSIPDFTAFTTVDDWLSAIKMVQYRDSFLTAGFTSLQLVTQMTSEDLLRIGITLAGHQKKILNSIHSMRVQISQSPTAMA
- measurement.description: radiometric filter-binding kinase assay, Kinase HotSpot
- reported.conditions: compound 0.5 µM; ATP 10 µM

cpd.smiles	residual activity / %
Nc1nc(Nc2ccc(S(N)(=O)=O)cc2)nn1C(=S)Nc1c(F)cccc1F	19.4
Cc1ccc(NC(=O)c2ccc(CN3CCN(C)CC3)cc2)cc1Nc1nc(-c2cccnc2)cs1	94.9
CC(C)n1cnc2c(Nc3cccc(Cl)c3)nc(NCCO)nc21	76.9
Nc1nc(Nc2ccc(S(N)(=O)=O)cc2)nn1C(=O)c1c(F)cccc1F	84.1

====

- tested.system: UniProtKB P22607
- Sequence (P22607 whole entry, looked up): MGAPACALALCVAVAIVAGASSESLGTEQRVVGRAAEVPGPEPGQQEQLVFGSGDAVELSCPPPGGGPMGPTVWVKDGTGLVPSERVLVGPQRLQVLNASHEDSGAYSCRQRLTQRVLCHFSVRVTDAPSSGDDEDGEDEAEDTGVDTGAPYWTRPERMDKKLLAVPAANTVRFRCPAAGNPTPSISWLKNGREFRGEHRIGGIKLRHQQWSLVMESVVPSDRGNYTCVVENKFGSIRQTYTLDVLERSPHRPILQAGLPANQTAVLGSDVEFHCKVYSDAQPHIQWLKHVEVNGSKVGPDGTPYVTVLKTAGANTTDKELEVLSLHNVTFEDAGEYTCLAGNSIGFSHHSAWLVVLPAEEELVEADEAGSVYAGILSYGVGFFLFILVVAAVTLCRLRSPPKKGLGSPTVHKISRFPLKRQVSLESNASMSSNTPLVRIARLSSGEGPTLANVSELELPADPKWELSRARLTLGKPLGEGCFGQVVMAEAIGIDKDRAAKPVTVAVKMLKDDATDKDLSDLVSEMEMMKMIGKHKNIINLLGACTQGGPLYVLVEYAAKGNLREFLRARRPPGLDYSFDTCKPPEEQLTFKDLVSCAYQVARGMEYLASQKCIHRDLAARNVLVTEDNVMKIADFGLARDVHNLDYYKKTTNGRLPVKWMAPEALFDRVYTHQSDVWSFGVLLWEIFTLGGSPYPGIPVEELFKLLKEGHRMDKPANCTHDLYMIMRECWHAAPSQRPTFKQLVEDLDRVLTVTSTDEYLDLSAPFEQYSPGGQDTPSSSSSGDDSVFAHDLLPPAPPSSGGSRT
- measurement.description: radiometric filter-binding kinase assay, Kinase HotSpot
- reported.conditions: compound 0.5 µM; ATP 10 µM
compounds and their reported residual activity

compound	residual activity
CS(=O)c1ccc(-c2nc(-c3ccc(F)cc3)c(-c3ccncc3)[nH]2)cc1 (centres undefined)	97%
COc1cc2ncnc(Nc3ccc(F)c(Cl)c3)c2cc1OCCCN1CCOCC1	79.3%
Oc1ccc(-c2nc(-c3ccc(F)cc3)c(-c3ccncc3)[nH]2)cc1	99.2%
O=c1cc(N2CCNCC2)oc2c(-c3ccccc3)cccc12	96.3%

====

- tested.system: MAP3K2 (human) (UniProt Q9Y2U5)
- measurement.description: radiometric filter-binding kinase assay, Kinase HotSpot
- reported.conditions: compound 0.5 µM; ATP 10 µM
molecules and their reported residual activity

cpd.smiles	unit.of.measurement	residual activity
Clc1ccc(Nc2nnc(Cc3ccncc3)c3ccccc23)cc1	%	126
COc1cc2ncnc(Nc3ccc(F)c(Cl)c3)c2cc1OCCCN1CCOCC1	%	109
O=c1cc(-c2cccc3c2Sc2ccccc2S3)oc(N2CCOCC2)c1	%	92.7

====

- tested.system: PIM1 (human)
- measurement.description: radiometric filter-binding kinase assay, Kinase HotSpot
- reported.conditions: compound 0.5 µM; ATP 10 µM

molecule	residual activity (%)
O=c1cc(N2CCNCC2)oc2c(-c3ccccc3)cccc12	92.4
COc1ccc(-c2cnc3c(-c4ccsc4)cnn3c2)cc1	97.5
O=C(Nc1ccc(Cl)cc1)c1ccccc1NCc1ccncc1	98.9
O=c1cc(-c2cccc3c2Sc2ccccc2S3)oc(N2CCOCC2)c1	77.6
COc1cc2ncnc(Nc3ccc(F)c(Cl)c3)c2cc1OCCCN1CCOCC1	86.4
Nc1nc(Nc2ccc(S(N)(=O)=O)cc2)nn1C(=S)Nc1c(F)cccc1F	90.7
CSc1nc(-c2ccc(F)cc2)c(-c2ccnc(NC(C)c3ccccc3)c2)[nH]1 (configuration not stated)	91.8

====

- tested.system: UniProt:P06213
- Sequence (P06213 whole entry, looked up): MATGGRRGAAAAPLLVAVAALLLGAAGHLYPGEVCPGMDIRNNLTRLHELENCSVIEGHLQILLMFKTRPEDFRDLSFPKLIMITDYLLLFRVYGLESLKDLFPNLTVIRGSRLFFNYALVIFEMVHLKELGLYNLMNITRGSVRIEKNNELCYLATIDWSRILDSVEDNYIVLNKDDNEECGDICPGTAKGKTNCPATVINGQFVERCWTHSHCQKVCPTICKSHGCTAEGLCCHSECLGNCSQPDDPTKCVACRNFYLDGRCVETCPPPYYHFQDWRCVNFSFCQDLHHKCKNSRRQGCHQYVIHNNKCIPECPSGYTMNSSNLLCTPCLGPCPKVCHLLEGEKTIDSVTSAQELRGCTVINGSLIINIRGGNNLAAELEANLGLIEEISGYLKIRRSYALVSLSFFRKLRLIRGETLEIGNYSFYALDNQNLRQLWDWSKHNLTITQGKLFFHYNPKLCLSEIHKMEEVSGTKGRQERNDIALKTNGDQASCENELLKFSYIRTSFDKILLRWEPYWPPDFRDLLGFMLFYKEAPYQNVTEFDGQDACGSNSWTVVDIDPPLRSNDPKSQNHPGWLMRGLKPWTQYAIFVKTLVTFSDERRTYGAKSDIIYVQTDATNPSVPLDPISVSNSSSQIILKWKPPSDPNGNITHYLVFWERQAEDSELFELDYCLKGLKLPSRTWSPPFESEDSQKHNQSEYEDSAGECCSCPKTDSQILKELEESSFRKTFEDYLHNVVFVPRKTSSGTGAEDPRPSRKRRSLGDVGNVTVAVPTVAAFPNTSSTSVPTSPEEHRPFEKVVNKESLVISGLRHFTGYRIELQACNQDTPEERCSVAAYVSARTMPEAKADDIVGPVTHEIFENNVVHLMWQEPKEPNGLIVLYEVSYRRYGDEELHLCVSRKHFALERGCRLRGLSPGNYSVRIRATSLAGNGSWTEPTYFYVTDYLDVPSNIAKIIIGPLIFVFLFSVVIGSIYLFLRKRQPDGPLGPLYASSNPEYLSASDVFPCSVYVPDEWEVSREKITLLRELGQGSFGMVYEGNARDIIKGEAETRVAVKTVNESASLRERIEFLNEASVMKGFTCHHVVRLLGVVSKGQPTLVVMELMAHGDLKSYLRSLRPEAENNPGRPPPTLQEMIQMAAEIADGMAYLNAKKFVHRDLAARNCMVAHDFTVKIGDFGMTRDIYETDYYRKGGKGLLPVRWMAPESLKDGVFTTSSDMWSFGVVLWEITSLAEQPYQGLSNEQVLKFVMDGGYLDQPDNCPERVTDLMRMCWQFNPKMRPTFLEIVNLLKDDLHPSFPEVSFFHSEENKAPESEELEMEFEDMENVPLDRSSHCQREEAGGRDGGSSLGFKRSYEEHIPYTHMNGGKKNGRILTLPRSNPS
- measurement.description: radiometric filter-binding kinase assay, Kinase HotSpot
- reported.conditions: compound 0.5 µM; ATP 10 µM
molecules and their reported residual activity

molecule	residual activity [%]
O=c1cc(-c2cccc3c2Sc2ccccc2S3)oc(N2CCOCC2)c1	105
COc1cc2nccc(Oc3ccc(NC(=S)NC(=O)c4ccccc4C)cc3)c2cc1OC	100
CSc1nc(-c2ccc(F)cc2)c(-c2ccnc(NC(C)c3ccccc3)c2)[nH]1 (centres undefined)	100
CCN1/C(=C/C(C)=O)Sc2ccc(OC)cc21	101

====

- tested.system: ERBB2 (human) (UniProt P04626)
- Sequence (P04626 whole entry, looked up): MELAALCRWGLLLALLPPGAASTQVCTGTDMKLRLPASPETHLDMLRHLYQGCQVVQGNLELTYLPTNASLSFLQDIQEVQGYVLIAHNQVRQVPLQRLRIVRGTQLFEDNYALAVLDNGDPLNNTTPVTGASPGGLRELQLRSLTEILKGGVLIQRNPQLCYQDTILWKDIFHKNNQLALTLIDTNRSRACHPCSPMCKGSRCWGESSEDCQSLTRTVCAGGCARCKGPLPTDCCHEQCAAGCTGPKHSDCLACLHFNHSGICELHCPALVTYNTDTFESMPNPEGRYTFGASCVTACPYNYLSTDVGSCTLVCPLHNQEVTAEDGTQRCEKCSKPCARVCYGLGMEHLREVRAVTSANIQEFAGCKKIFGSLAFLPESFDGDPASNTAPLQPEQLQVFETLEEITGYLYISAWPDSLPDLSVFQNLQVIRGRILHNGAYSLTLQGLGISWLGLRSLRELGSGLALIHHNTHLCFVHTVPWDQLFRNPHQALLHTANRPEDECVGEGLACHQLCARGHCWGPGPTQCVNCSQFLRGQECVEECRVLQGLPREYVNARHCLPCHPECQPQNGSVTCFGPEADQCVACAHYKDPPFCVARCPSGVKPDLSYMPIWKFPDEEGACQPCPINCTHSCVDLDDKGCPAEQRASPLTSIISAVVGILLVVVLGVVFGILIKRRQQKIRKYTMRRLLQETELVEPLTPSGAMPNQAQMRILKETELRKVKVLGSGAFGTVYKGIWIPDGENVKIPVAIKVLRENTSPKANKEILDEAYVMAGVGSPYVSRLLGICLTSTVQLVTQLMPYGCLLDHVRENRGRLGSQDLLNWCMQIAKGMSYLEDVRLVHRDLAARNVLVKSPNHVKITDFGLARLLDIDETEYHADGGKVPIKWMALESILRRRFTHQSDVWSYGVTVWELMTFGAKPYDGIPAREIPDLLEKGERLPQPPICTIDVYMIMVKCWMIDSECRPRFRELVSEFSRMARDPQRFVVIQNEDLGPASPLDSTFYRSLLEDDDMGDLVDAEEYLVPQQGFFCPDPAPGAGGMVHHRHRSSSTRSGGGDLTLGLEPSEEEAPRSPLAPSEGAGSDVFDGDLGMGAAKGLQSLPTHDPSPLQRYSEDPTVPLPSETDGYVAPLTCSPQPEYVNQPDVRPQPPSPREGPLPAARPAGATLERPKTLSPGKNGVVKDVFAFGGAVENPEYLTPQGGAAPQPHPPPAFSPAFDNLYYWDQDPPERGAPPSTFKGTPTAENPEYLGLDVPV
- measurement.description: radiometric filter-binding kinase assay, Kinase HotSpot
- reported.conditions: compound 0.5 µM; ATP 10 µM
endpoint.label: residual activity (%)

compound	tested.system	observed.result
Nc1nc(Nc2ccc(S(N)(=O)=O)cc2)nn1C(=O)c1c(F)cccc1F	ERBB2 (human) (UniProt P04626)	91.1
COc1cc2ncnc(Nc3ccc(F)c(Cl)c3)c2cc1OCCCN1CCOCC1	ERBB2 (human) (UniProt P04626)	34.2
CC(C)(C)c1nc2c3ccc(F)cc3c3c(=O)[nH]ccc3c2[nH]1	ERBB2 (human) (UniProt P04626)	109
O=C1Cc2c([nH]c3ccc([N+](=O)[O-])cc23)-c2ccccc2N1	ERBB2 (human) (UniProt P04626)	94.8
CCCNC(=O)Nc1ccc(Oc2ncnc3cc(OC)c(OC)cc23)cc1Cl	ERBB2 (human) (UniProt P04626)	116
COc1cc2nccc(Oc3ccc(NC(=S)NC(=O)c4ccccc4C)cc3)c2cc1OC	ERBB2 (human) (UniProt P04626)	102
Cc1cc2ncc(-c3ccccc3)nc2cc1C	ERBB2 (human) (UniProt P04626)	97.4
CSc1nc(-c2ccc(F)cc2)c(-c2ccnc(NC(C)c3ccccc3)c2)[nH]1 (stereo not drawn)	ERBB2 (human) (UniProt P04626)	99.2
